Taken from ChEMBL document CHEMBL1122774.

- Tested on: Canis familiaris
- PROTOCOL DESCRIPTION: Renal vasodilator activity in anesthetized dogs and percent change in renal vascular resistance (RVR) was determined at 30 ug/Kg/min
- Type: functional, Canis lupus familiaris
VALUE KIND: Change (%)
Give the value in % but do not write % after it.

MOLECULE	VALUE UNITS	Change
CC(Cc1ccccc1)(NC(=O)[C@@H]1CCCN1C(=O)CCCc1ccccc1)C(=O)N1CCC[C@H]1C(=O)O (some centres undefined)	%	-2
COc1ccc(CC(C)(NC(=O)[C@@H]2CCCN2C(=O)CCCc2ccc(O)cc2)C(=O)NCCCN)cc1OC.Cl (some centres undefined)	%	-15.5

Consider now this further molecule.
Prompt: Item under review: CC(Cc1ccccc1)(NC(=O)[C@@H]1CCCN1C(=O)CCCc1ccc(O)cc1)C(=O)NCCCCCC(=O)O (some centres undefined) . Reported Change?
Response: 5
